target_or_system: EPHB1 (UniProt P54762)
Sequence (P54762 whole entry, looked up): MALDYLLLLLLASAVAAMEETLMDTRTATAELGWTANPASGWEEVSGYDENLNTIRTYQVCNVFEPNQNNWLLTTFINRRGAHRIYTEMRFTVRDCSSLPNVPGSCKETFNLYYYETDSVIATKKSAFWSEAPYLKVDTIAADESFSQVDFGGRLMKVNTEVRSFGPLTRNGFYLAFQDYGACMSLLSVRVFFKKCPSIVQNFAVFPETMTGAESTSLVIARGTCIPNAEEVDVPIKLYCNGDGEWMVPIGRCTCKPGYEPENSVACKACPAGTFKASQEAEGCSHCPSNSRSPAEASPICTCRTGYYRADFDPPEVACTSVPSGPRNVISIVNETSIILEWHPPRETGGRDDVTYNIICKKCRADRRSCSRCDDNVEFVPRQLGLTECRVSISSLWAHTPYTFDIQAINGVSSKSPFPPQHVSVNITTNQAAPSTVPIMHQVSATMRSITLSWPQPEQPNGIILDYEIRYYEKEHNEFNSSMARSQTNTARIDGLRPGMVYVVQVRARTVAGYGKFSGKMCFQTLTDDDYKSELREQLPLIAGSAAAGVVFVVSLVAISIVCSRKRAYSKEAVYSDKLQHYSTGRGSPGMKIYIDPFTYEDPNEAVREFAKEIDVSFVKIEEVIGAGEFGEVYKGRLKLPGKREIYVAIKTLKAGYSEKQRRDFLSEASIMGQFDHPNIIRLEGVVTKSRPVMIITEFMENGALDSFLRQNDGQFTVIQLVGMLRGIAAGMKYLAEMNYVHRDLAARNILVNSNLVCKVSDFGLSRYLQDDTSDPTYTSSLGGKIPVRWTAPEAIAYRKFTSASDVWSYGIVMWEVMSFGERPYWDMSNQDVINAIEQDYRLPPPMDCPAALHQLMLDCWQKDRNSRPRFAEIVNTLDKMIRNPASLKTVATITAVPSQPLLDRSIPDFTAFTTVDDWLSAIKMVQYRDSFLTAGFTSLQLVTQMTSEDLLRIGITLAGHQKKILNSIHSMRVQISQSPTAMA
assay_method_text: phosphorylation enrichment, bacterial display (enrichment ratio); higher = better substrate or ligand; peptides without Tyr show the background;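 further: 11-residue human phosphosite peptides and single-mutation variants displayed on the E. coli surface, counted by deep sequencing, each peptide's frequency after selection divided by its frequency in the unselected input library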;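 further: frequency after pTyr selection over input frequency; kinase dosed for 20-30% of maximal phosphorylation in three min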
Could you label it met if measured phosphorylation enrichment is 0.6 or higher, and not met otherwise?

HPWPRYTTRAP [FNDC1_Y1281_Q1280R]    not met
SYPREYGSQEG [RBM10_Y48]    not met

Does the sequence PSSNLYFRWLT [CNGA3_Y168_YF] have recorded phosphorylation enrichment that is 0.6 or more?
met

Follow-up entry: YMRGMYFRMKD [PLA2G6_Y541]
not met

Follow-up entry: CSHKFYGKQCC [ADAMTS16_Y1211]
not met

Follow-up entry: IRCQGYSHRIL [MYO3B_Y993_R990C]
not met

Follow-up entry: FMRGMYFRMKD [PLA2G6_Y541_YF]
not met

Follow-up entry: RLDRSYSFSFS [PEAR1_Y890_YF]
met

* * *

What phosphorylation enrichment was measured for each of the following?
target_or_system: EPHB1 (UniProt P54762)
assay_method_text: phosphorylation enrichment, bacterial display (enrichment ratio); higher = better substrate or ligand; peptides without Tyr show the background
Give bare numbers.

As a guide, the following entries are already answered.
NTQRPHFKGGG [TYROBP_Y111_Y111H_YF]    0.378
RVEDAYILTCN [CCT6A_Y229]    0.515
TNRSVYFKPSL [NUP153_Y382]    0.453
LASSEYPVQRR [GALK1_Y236_R239Q]    0.381
IMVFVYCRVFQ [ADRB2_Y219_S220C]    0.424

Could you tell me phosphorylation enrichment for each of these sequences? They are listed below.
1. MEVGQYIFVKC [CYBB_Y324]
2. SLDLSYFHTSS [EMD_Y181_P183H_YF]
3. CDTKLYTSVPN [DNTTIP2_Y427_A430V]
4. RVQKRYIFDNV [RCN1_Y115]

0.835
0.517
1.11
0.291

Could you tell me phosphorylation enrichment for each of these sequences? They are listed below.
1. STKELYEKFMI
2. GGGFGYQKTKK [DDX18_Y643]

1: 0.411; 2: 0.252

Could you tell me phosphorylation enrichment for each of these sequences? They are listed below.
1. FPPTHYIRRVP [SLC4A11_Y820_YF]
2. SVTCTYSPALY [TP53_Y126_N131Y]
3. EGTATYAAAVL [JUP_Y644]

[0.529, 0.808, 0.561]

* * *

target_or_system: MERTK (UniProt Q12866)
Sequence (Q12866 whole entry, looked up): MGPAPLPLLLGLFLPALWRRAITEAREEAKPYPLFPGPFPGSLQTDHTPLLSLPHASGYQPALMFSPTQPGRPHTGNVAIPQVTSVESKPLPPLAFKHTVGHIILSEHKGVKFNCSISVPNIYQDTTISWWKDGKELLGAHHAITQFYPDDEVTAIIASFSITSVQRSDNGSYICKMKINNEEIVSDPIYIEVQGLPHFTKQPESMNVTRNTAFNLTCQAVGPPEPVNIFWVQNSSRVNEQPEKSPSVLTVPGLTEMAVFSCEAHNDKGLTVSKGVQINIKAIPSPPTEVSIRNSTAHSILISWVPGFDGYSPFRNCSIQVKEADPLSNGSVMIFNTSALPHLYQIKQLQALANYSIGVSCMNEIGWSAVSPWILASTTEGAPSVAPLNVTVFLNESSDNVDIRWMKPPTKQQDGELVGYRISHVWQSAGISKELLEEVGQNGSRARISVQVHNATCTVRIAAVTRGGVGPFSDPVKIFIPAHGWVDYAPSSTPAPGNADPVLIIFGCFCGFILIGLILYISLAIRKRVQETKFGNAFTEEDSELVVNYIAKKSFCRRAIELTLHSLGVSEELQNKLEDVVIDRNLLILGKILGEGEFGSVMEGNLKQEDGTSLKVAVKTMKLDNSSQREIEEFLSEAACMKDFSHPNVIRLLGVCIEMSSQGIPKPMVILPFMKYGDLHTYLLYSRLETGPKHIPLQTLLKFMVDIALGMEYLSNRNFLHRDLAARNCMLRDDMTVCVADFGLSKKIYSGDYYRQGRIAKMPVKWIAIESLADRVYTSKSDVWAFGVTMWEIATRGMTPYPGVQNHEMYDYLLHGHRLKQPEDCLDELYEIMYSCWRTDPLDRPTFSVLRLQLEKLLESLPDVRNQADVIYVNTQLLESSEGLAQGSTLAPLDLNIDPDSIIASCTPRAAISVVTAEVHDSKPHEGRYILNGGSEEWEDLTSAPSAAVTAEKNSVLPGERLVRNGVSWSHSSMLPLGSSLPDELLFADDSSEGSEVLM
assay_method_text: phosphorylation enrichment, bacterial display (enrichment ratio); higher = better substrate or ligand; peptides without Tyr show the background
Could you label it fulfilled if measured phosphorylation enrichment is 0.5 or higher, and not fulfilled otherwise?

Would you please look over these solved cases?
DDEESYENVPR [FCRL3_Y722_N721S]    not fulfilled
SCPANYFAFKI [FAM3D_Y65_P60S]    fulfilled
FMRGMYFRMKD [PLA2G6_Y541_YF]    not fulfilled
QGGRRYMMIVD [GAA_Y438]    not fulfilled
DVSVVYSEVKT [FCRL4_Y493]    fulfilled
ARMTNCGLPRY [TSPAN12_Y138_Y138C]    not fulfilled

Shift focus to the following entry.
Does the sequence REGKIYEFNQV [ZNF665_Y162_H157R_YF] have recorded phosphorylation enrichment that is 0.5 or more?
fulfilled

meta.source: the supplement of paper PMC10065799
